Assignment: determine reported Plant response rating, Kochia for the given molecules.
Test system: kochia
assay procedure: Test A postemergence
Type: in vivo, Kochia scoparia
measurement conditions: 500 g ai/ha, 0 to 100 scale where 0 is no effect and 100 is complete control
Provide a numeric answer; units are not to be included.

Give Plant response rating, Kochia for the following molecule: "FC(F)(F)COc1cnn(-c2ccccc2Oc2ncc(Cl)cn2)c1"
100

Please supply the value of reported Plant response rating, Kochia for the item "Oc1cccc(Oc2ncc(Cl)cn2)c1-n1cc(Br)cn1"
0

Look up and report measured Plant response rating, Kochia for this entry: "N#Cc1cccc(Oc2ncc(Cl)cn2)c1-n1cnc(C(F)(F)F)c1"
100

Output Plant response rating, Kochia of "CCOc1cnn(-c2c(C#N)cccc2Oc2ncc(F)cn2)c1"
90

Determine from records and report Plant response rating, Kochia for "N#Cc1cnn(-c2c(C#N)cccc2Oc2ncc(I)cn2)c1"
30

Read off the recorded Plant response rating, Kochia for "CC(C)(C)c1cnn(-c2c(C#N)cccc2Oc2ncc(Cl)cn2)c1"
10

###

Test system: sedge, umbrella
assay procedure: Test C flooded paddy test
Type: in vivo, Cyperus difformis
measurement conditions: Flood, 125 g ai/ha; scale 0 to 100 (0 no effect, 100 complete control), 13 to 15 days
Give measured Plant response rating, Sedge, Umbrella for each item. Keep answers brief.
Keep it simple and answer with nothing but the number.

// fetch Plant response rating, Sedge, Umbrella for Fc1cccc(Oc2ncc(Cl)cn2)c1-n1cc(I)cn1 [Compound 179] ; system: sedge, umbrella
40

Give Plant response rating, Sedge, Umbrella for this entry on sedge, umbrella: Clc1cnc(Oc2ccccc2-n2cc(Cl)cn2)nc1 [Compound 3]
20

Please report Plant response rating, Sedge, Umbrella with sedge, umbrella for item N#Cc1cccc(Oc2ncc(Br)cn2)c1-n1cc(C(F)(F)F)cn1 [Compound 59] .
90

Check sedge, umbrella data and give Plant response rating, Sedge, Umbrella for Brc1cnc(Oc2ccccc2-n2cc(Br)cn2)nc1 [Compound 8] .
75

Please indicate recorded Plant response rating, Sedge, Umbrella of CCCOc1cnn(-c2c(C#N)cccc2Oc2ncc(Cl)cn2)c1 [Compound 150] measured with sedge, umbrella.
75

Report the value of Plant response rating, Sedge, Umbrella obtained on sedge, umbrella for N#Cc1cnn(-c2c(Oc3ncc(Cl)cn3)cccc2C(F)F)c1 [Compound 236] .
60

Print sedge, umbrella Plant response rating, Sedge, Umbrella for FC(F)(F)c1cnn(-c2c(Cl)cccc2Oc2ncc(Cl)cn2)c1 [Compound 167] .
80

Please tell me the measured Plant response rating, Sedge, Umbrella for Clc1cnc(Oc2cccc(Br)c2-n2cc(Br)cn2)nc1 [Compound 65] ; system: sedge, umbrella.
75

###

System: corn
assay procedure: Test A postemergence
Type: in vivo, Zea mays
measurement conditions: 500 g ai/ha, 0 to 100 scale where 0 is no effect and 100 is complete control
Task for the reader: assign each of the following compounds its reported Plant response rating, Corn.

Provide Plant response rating, Corn value for the following compound: N#Cc1cccc(Oc2ncc(Cl)cn2)c1-n1cc([N+](=O)[O-])cn1 [Compound 304]
0

Retrieve Plant response rating, Corn measured for N#Cc1cnc(Oc2cccc(C#N)c2-n2cc(Br)cn2)nc1 [Compound 214] and print it.
0

Specify reported Plant response rating, Corn for the compound shown: CON=Cc1cccc(Oc2ncc(Cl)cn2)c1-n1cc(Br)cn1 [Compound 203]
50

Return Plant response rating, Corn (reported value) for this compound: CCCc1cnc(Oc2cccc(C#N)c2-n2cc(Br)cn2)nc1 [Compound 131]
0

Assign Plant response rating, Corn to the following record: CCOc1cnn(-c2c(C#N)cccc2Oc2ncc(F)cn2)c1 [Compound 89]
90

State, in one line, measured Plant response rating, Corn of N#Cc1cccc(Oc2ncc(Cl)cn2)c1-n1cc(-n2ccc(C(F)(F)F)n2)cn1 [Compound 284]
40

Please report the measured Plant response rating, Corn for N#Cc1cccc(Oc2ncc(F)cn2)c1-n1cc(I)cn1 [Compound 86]
100

Determine its reported Plant response rating, Corn: FC(F)(F)c1cnn(-c2c(Cl)cccc2Oc2ncc(Cl)cn2)c1 [Compound 167]
50

Give Plant response rating, Corn for N#Cc1cccc(Oc2ncc(Cl)cn2)c1-n1cc(Br)cn1 [Compound 235]
0

Item Fc1cnc(Oc2cccc(C(F)F)c2-n2cc(Br)cn2)nc1 [Compound 112] : provide Plant response rating, Corn
70

For the compound N#Cc1cnn(-c2c(C=O)cccc2Oc2ncc(Cl)cn2)c1 [Compound 237] , give its reported Plant response rating, Corn.
0

Using the record for CNN=Cc1cccc(Oc2ncc(Cl)cn2)c1-n1cc(Br)cn1 [Compound 289] , state its measured Plant response rating, Corn.
10

Note down Plant response rating, Corn recorded for N#Cc1cc(F)cc(Oc2ncc(Br)cn2)c1-n1cc(Br)cn1 [Compound 239]
20
